Task for the reader: assign each of the following compounds its reported growth, % of control.
methodDescription: qHTS profiling of the MIPE4 collection as inhibitors of Plasmodium falciparum (HB3) proliferation (AID 743347);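 also: plate controls were DMSO vehicle wells for no effect and artemisinin wells for full effect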
conditionContext: P. falciparum HB3 in erythrocytes, SYBR Green DNA, 72 h; at 28.5 µM (top of the series) unless noted
Report field: quantity (unit follows the number).

Please review the entries below; each comes with its answer.
moleculesmiles=COc1nc(C)cnc1NS(=O)(=O)c1cccnc1-c1ccc(-c2nnco2)cc1 endpointvalue=100%
moleculesmiles=CCn1c(-c2nonc2N)nc2cncc(CNC3CCNCC3)c21 endpointvalue=7.55%
moleculesmiles=C[C@@H](O)[C@H]1C(=O)N2C(C(=O)OCOC(=O)C(C)(C)C)=C(SC3CN(C4=NCCS4)C3)[C@H](C)[C@H]12 endpointvalue=104%

Input: Quick one: growth, % of control of CCOC(=O)N1c2ccc(C(F)(F)F)cc2[C@@H](N(Cc2cc(C(F)(F)F)cc(C(F)(F)F)c2)C(=O)OC)C[C@H]1CC ?
Output: 3.55%
